# System: MDA-MB-468
# test_details: phospho-S6 immunofluorescence (DAPI-normalised), per-plate z-score; higher = higher phospho-S6 signal (less pathway suppression)
# condition_summary: co-treatment: vehicle; 24 h
Counter-ions that a name gives are not always drawn.
Note: every record was labeled by where its phospho-S6 immunofluorescence (z-score) sits among group A: < -0.9; group B: ≥ -0.9 and < 0.06; group C: ≥ 0.06

[
  {
    "compound": "CC[N+](C)(CC)CCOC(=O)C(O)(c1ccccc1)c1ccccc1 [Methylbenactyzium Bromide] (compound 10 µM)",
    "cat": "group B"
  },
  {
    "compound": "O=C1CCC[C@@H]2[C@H]3CCCN4CCC[C@@H](CN12)[C@@H]34 [Matrine] (compound 10 µM)",
    "cat": "group B"
  },
  {
    "compound": "Oc1ccc2c3c1O[C@H]1c4[nH]c5ccccc5c4C[C@@]4(O)[C@@H](C2)N(CC2CC2)CC[C@]314 [Naltrindole (hydrochloride)] (compound 10 µM)",
    "cat": "group A"
  },
  {
    "compound": "O=C(O[C@H]1C[N+]2(CCCOc3ccccc3)CCC1CC2)C(O)(c1cccs1)c1cccs1 [Aclidinium (Bromide)] (compound 10 µM)",
    "cat": "group B"
  },
  {
    "compound": "CSCC[C@H](NC(=O)[C@H](Cc1ccccc1)NC(=O)CNC(=O)CNC(=O)[C@@H](N)Cc1ccc(O)cc1)C(=O)O (compound 10 µM)",
    "cat": "group B"
  },
  {
    "compound": "CCC(COC(=O)c1cc(OC)c(OC)c(OC)c1)(c1ccccc1)N(C)C (centres undefined) [Trimebutine (maleate)] (compound 10 µM)",
    "cat": "group C"
  },
  {
    "compound": "O=C(O[C@H]1C[C@H]2CC[C@@H](C1)[N+]21CCCC1)C(O)(c1ccccc1)c1ccccc1 [Trospium (chloride)] (compound 10 µM)",
    "cat": "group A"
  },
  {
    "compound": "C[N+]1(C)[C@@H]2C[C@@H](OC(=O)[C@H](CO)c3ccccc3)C[C@H]1[C@@H]1O[C@@H]12 [Methscopolamine (bromide)] (compound 10 µM)",
    "cat": "group C"
  }
]
